Biological target: MSUT2 ZF (Homo sapiens, UniProt Q6PJT7)
Construct: Targeted construct consisted of the c-terminal end (dark blue and amino acids 601-736) of MSUT2; made in house; host or cells: E. coli BL21 (DE3)
Assay: Fluorescence polarization assay of FAM-poly(A) RNA:MSUT2 ZF binding
Conditions: 10 nM FAM-RNA:125 nM MSUT2 ZF, positive control; read-out: IC50 in FP competition assay
Readout label: IC50 (nM)

>>> reported("unlabeled poly(A)15 RNA: unlabeled poly(A) RNA 5′-AAAAAAAAAAAAAAA-3′ (SEQ ID NO: 2), positive control for inhibition (RNA, backbone not given here)")
320

----------
Biological target: GST-MSUT2 (Homo sapiens, UniProt Q6PJT7)
Sequence (Q6PJT7 601-736): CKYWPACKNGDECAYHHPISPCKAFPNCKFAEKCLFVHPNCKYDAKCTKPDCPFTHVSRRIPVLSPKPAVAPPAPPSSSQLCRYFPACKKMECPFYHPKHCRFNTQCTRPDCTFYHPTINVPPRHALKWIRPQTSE
pKi: −log10 of the molar value.
Readout label: pKi

>>> reported("O=c1c2ccccc2[se]n1-c1ccccc1 [Ebselen]")
5.80
